Each item that follows carries a reported log10 of microsomal CLint.
Assay: in vitro
Conditions: male, C57BL/6J, mouse, microsomes, pH 7.4
Record value = log10 of microsomal CLint given in µL/min/mg.

CCCCC/C=C\C/C=C\C/C=C\C/C=C\CCCC(=O)NCCO [Anandamide, N-arachidonoylethanolamine] | 2.35
CCCCCCC(C)(C)c1ccc([C@@H]2C[C@H](O)CC[C@H]2CCCO)c(O)c1 [CP55940] | 2.24

Looking up Cc1c(C(=O)NN2CCCCC2)nn(-c2ccc(Cl)cc2Cl)c1-c1ccc(Cl)cc1 [SR141716A] , I see its log10 of microsomal CLint listed as 2.04

// log10 of microsomal CLint value for CCCCCCC(C)(C)c1cc(O)c2c(c1)OC(C)(C)[C@@H]1CC=C(CO)C[C@@H]21 [HU210] : 1.52

Short answer for CCCCC/C=C\C/C=C\C/C=C\C/C=C\CCCC(=O)OC(CO)CO [2-AG, 2-arachidonoyl glycerol] : log10 of microsomal CLint was 1.08

---

Target: FP (h) (Homo sapiens)
Construct: CEREP (contract assay)
Sequence (P43088 whole entry): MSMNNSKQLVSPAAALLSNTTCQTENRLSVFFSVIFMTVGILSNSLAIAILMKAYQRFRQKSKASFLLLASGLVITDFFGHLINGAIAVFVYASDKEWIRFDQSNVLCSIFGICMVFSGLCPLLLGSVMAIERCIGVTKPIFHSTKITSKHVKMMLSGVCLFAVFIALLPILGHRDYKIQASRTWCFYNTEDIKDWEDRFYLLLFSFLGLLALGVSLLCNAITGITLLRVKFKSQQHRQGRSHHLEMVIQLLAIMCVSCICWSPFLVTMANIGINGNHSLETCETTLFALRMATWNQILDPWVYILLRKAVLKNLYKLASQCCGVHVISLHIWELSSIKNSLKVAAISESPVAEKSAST
Assay: CEREP panel
Format: binding
Details: 10 µM
measured-quantity: % inhibition FP (h) (%)
The answer is to be given in %; state only the numeric part.

COc1ccc(C(=O)c2c(C)n(CCN3CCOCC3)c3cc(I)ccc23)cc1 | 66

Documented % inhibition FP (h) of "Cc1c(C(=O)c2cccc3ccccc23)c2cccc3c2n1[C@H](CN1CCOCC1)CO3" : 81

In plain terms, "Cc1c(C(=O)NN2CCCCC2)nn(-c2ccc(Cl)cc2Cl)c1-c1ccc(I)cc1" has a documented % inhibition FP (h) of 94

// % inhibition FP (h) value for "Cc1ccc2c(c1)Cc1c(C(=O)NN3CCCCC3)nn(-c3ccc(Cl)cc3Cl)c1-2" : 88

---

Molecular target: mCB2R (Mus musculus, UniProt P47936)
Sequence (P47936 whole entry): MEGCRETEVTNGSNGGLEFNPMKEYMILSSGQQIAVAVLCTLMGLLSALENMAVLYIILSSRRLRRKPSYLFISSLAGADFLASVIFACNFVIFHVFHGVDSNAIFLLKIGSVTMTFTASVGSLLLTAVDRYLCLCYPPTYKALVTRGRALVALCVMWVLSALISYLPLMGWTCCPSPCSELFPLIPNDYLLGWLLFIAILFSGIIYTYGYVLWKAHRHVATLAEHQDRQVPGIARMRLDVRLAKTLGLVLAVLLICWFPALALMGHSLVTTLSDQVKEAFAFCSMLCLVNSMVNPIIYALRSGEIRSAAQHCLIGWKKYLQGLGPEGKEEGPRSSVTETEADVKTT
Assay: Operational analysis of biased signalling
Listed next: entries and their corresponding GTPγS-cAMP ΔΔlogR.
Reply briefly: the number, and no unit.

CCCCCCC(C)(C)c1ccc([C@@H]2C[C@H](O)CC[C@H]2CCCO)c(O)c1 | 0

Value of GTPγS-cAMP ΔΔlogR reported for the molecule "CCCCCCC(C)(C)c1cc(OC)c([C@@H]2C=C(CO)[C@@H]3C[C@H]2C3(C)C)c(OC)c1" is 1.41

Lab note: measured GTPγS-cAMP ΔΔlogR of "CCCCCCC(C)(C)c1cc(OC)c(C2=C[C@H]3CC[C@]2(CO)C3(C)C)c(OC)c1" was 1.37

GTPγS-cAMP ΔΔlogR for "CCCC(C)(C)c1ccc2c(c1)OC(C)(C)[C@@H]1CC=C(C)C[C@@H]21" is 1.71

---

Conditions: i.v., mice
measured-quantity: AUCinf

Cc1ccc2c(c1)Cc1c(C(=O)NN3CCCCC3)nn(-c3ccc(Cl)cc3Cl)c1-2 | 825 ng·h/mL
COc1ccc(C(=O)c2c(C)n(CCN3CCOCC3)c3cc(I)ccc23)cc1 | 197 ng·h/mL
CCCCCCC(C)(C)c1cc(OC)c(C2=C[C@H]3CC[C@]2(CO)C3(C)C)c(OC)c1 | 6060 ng·h/mL
CCCC(C)(C)c1ccc2c(c1)OC(C)(C)[C@@H]1CC=C(C)C[C@@H]21 | 1750 ng·h/mL
CCCn1c(C)c(C(=O)c2cccc3ccccc23)c2ccccc21 | 174 ng·h/mL

Read the next record carefully.
Looking up CN1CCCC[C@H]1Cn1cc(C(=O)c2cc([N+](=O)[O-])ccc2I)c2ccccc21 [(S)-AM1241] , I see its AUCinf listed as 276 ng·h/mL
